biological target: Cytochrome P450 3A4 (Homo sapiens) (UniProt P08684); assay: Cytochrome panel assay with activity outcomes; conditions: recombinant CYP, pro-luciferin dealkylation, luminescence, p450-cyp3a4; series mostly up to 57.1 µM
Sequence (P08684 whole entry, looked up): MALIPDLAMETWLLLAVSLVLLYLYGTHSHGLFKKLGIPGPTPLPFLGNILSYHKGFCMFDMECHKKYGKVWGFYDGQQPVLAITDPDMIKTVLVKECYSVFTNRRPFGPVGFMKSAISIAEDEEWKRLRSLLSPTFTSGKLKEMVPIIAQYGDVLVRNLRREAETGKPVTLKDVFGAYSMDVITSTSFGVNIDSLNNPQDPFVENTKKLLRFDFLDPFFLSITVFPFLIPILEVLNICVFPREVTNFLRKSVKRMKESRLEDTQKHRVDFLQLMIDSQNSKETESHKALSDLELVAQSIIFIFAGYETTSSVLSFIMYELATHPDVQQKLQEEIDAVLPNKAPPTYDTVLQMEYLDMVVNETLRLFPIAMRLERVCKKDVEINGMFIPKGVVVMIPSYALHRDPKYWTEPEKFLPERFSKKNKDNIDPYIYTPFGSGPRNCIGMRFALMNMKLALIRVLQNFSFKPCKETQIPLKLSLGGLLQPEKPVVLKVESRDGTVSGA
In all, about 16,000 compounds went through this assay and about 5,100 (32%) were called active. Roughly 25% stayed inconclusive and do not appear here. The call rests on the fitted dose curve; in most records, active means well fitted curve in the direction sought with a large enough effect; inconclusive means small, poorly fitted or top-dose-only effect, or effect the other way; inactive means no such curve, though single readings can be large or run the other way. This is one part of the list.
Outcome codes: TRUE (active), FALSE (inactive)

{"columns": ["MOLECULE", "CATEGORY"],
 "data": [
  ["COc1ccc(C=O)cc1COc1ccc(C)cc1[N+](=O)[O-]", "FALSE"],
  ["CCC(CC)C(=O)Nc1cccc(/C(C)=N\\NC(=O)c2ccc(C)s2)c1", "TRUE"],
  ["COc1cc(C2C(C#N)=C(N)N(Nc3ccccc3)C3=C2C(=O)CC(C)(C)C3)ccc1OCc1ccccc1 (centres undefined)", "TRUE"],
  ["CCN(CCCNC(=O)CC(C(=O)N1CCc2ccccc21)n1ccnc1)c1ccccc1 (centres undefined)", "TRUE"],
  ["CCOc1cc(C)ccc1OCc1nnc(SCC(=O)c2cccc([N+](=O)[O-])c2)n1CC", "TRUE"],
  ["C=CCn1c(COc2ccccc2)nnc1SCC(=O)N/N=C/c1ccc(C)cc1", "TRUE"],
  ["CCn1c(CNC(=O)COc2ccc(C(C)C)cc2)nnc1SCC(=O)Nc1cc(F)ccc1C", "TRUE"],
  ["CC(=O)N[C@@H](c1ccccc1)[C@]1(C)C[C@H]1[C@@H](C)C(=O)Nc1ccc2ccccc2c1", "TRUE"],
  ["O=C1CSC(c2ccccn2)N1c1ccc(Cl)c(Cl)c1 (centres undefined)", "FALSE"],
  ["C/C(=N\\NC(=O)c1ccc(Cl)cc1)c1cccc(NC(=O)C(C)C)c1", "TRUE"],
  ["Cc1cnc(CNc2ncnc3ccc(-c4ccccc4CN(C)C)cc23)cn1", "FALSE"],
  ["C/C(=N\\NC(=O)c1cccc(F)c1)c1ccc(Br)s1", "FALSE"],
  ["Cc1ccc(-n2c(C)nnc2SCC(=O)N2CCc3ccccc3C2)cc1C", "TRUE"],
  ["CCOC(=O)c1c(NC(=O)c2c(Br)cnn2C)c(C#N)nn1-c1ccccc1", "FALSE"],
  ["C=CCN1C(=NC(=O)CC)SC2CS(=O)(=O)CC21 (centres undefined)", "FALSE"],
  ["CN(C)C(=O)CCc1nc(-c2ccc(C(C)(C)C)cc2)no1", "FALSE"],
  ["Cc1noc(C)c1-c1nc(Nc2ccncc2)c2ccccc2n1", "TRUE"],
  ["O=S(=O)(c1ccccc1)N1CCC2(CCCN(C(c3ccccc3)c3ccccc3)C2)CC1", "TRUE"],
  ["COc1ccc(OC)c(C2C3=C(COC3=O)Nc3cc4c(cc32)OCO4)c1 (centres undefined)", "TRUE"],
  ["O=S(=O)(c1ccccc1)N1CCC[C@@]2(CCN(C(c3ccccc3)c3ccccc3)C2)C1", "TRUE"],
  ["COc1cc(/C=N\\NC(=O)C2C(=O)NCC2c2ccccc2)cc(OC)c1O (centres undefined)", "FALSE"],
  ["CCN(CC)S(=O)(=O)c1cccc2c(N(C)C)cccc12", "FALSE"],
  ["CC(=O)NCCNc1nc(-c2ccc3c(c2)OCO3)nc2ccccc12", "TRUE"],
  ["COc1ccc(C2C(C#N)=C(N)N(Nc3ccccc3)C3=C2C(=O)CC(C)(C)C3)cc1C (centres undefined)", "TRUE"],
  ["C[C@H](CCC(=O)NCC(=O)O)[C@H]1CC[C@H]2[C@H]3[C@@H](C[C@@H](O)[C@]12C)[C@]1(C)CC[C@H](O)C[C@@H]1C[C@@H]3O", "FALSE"],
  ["C=CCc1cccc(C2Nc3ccccc3C(=O)N2O)c1O (centres undefined)", "TRUE"],
  ["Cc1noc(C)c1-c1nc(Nc2ccccc2)c2ccccc2n1", "TRUE"],
  ["O=C(OCC#CCSc1nnc(-c2cccc3ccccc23)o1)c1ccco1", "TRUE"],
  ["O=[N+]([O-])c1cc(C(F)(F)F)ccc1NCCCCNS(=O)(=O)c1ccc2ccccc2c1", "TRUE"]
]}
